settings: in n-pentanol, 323.15 K
quantity kind: solubility (mole fraction)
// response body must contain only the number

Task: Endpoint output: solubility (mole fraction) of `O=C(O)c1ccc(-c2ccc(C(=O)O)o2)o1` . Value?
Result: 0.000148

---

details: in DMAc, 313.15 K
quantity kind: solubility (mole fraction)
// response body must contain only the number

Task: Endpoint output: solubility (mole fraction) of `O=C(O)c1ccc(-c2ccc(C(=O)O)o2)o1` . Value?
Result: 0.0283

---

details: in isopropanol, 363.15 K
quantity kind: solubility (mole fraction)
// response body must contain only the number

Task: Endpoint output: solubility (mole fraction) of `O=C(O)c1ccc(-c2ccc(C(=O)O)o2)o1` . Value?
Result: 0.0014

---

conditions: in methanol, 333.15 K
quantity kind: solubility (mole fraction)

Task: Endpoint output: solubility (mole fraction) of `O=C(O)c1ccc(-c2ccc(C(=O)O)o2)o1` . Value?
Result: 0.000702

---

conditions: in acetic acid, 323.15 K
quantity kind: solubility (mole fraction)
// response body must contain only the number

Task: Endpoint output: solubility (mole fraction) of `O=C(O)c1ccc(-c2ccc(C(=O)O)o2)o1` . Value?
Result: 3.38e-05

---

settings: in DMAc, 333.15 K
quantity kind: solubility (mole fraction)

Task: Endpoint output: solubility (mole fraction) of `O=C(O)c1ccc(-c2ccc(C(=O)O)o2)o1` . Value?
Result: 0.0555

---

conditions: in acetonitrile, 298.15 K
quantity kind: solubility (mole fraction)
// response body must contain only the number

Task: Endpoint output: solubility (mole fraction) of `O=C(O)c1ccc(-c2ccc(C(=O)O)o2)o1` . Value?
Result: 1.73e-06

---

settings: in n-pentanol, 343.15 K
quantity kind: solubility (mole fraction)
// response body must contain only the number

Task: Endpoint output: solubility (mole fraction) of `O=C(O)c1ccc(-c2ccc(C(=O)O)o2)o1` . Value?
Result: 0.000412

---

conditions: in methanol, 323.15 K
quantity kind: solubility (mole fraction)

Task: Endpoint output: solubility (mole fraction) of `O=C(O)c1ccc(-c2ccc(C(=O)O)o2)o1` . Value?
Result: 0.000574

---

details: in isopropanol, 298.15 K
quantity kind: solubility (mole fraction)
// response body must contain only the number

Task: Endpoint output: solubility (mole fraction) of `O=C(O)c1ccc(-c2ccc(C(=O)O)o2)o1` . Value?
Result: 0.0001

---

conditions: in isopropanol, 333.15 K
quantity kind: solubility (mole fraction)
// response body must contain only the number

Task: Endpoint output: solubility (mole fraction) of `O=C(O)c1ccc(-c2ccc(C(=O)O)o2)o1` . Value?
Result: 0.000284

---

conditions: in water, 303.15 K
quantity kind: solubility (mole fraction)
// response body must contain only the number

Task: Endpoint output: solubility (mole fraction) of `O=C(O)c1ccc(-c2ccc(C(=O)O)o2)o1` . Value?
Result: 1.31e-06

---

conditions: in acetonitrile, 323.15 K
quantity kind: solubility (mole fraction)

Task: Endpoint output: solubility (mole fraction) of `O=C(O)c1ccc(-c2ccc(C(=O)O)o2)o1` . Value?
Result: 5.31e-06

---

details: in acetic acid, 303.15 K
quantity kind: solubility (mole fraction)
// response body must contain only the number

Task: Endpoint output: solubility (mole fraction) of `O=C(O)c1ccc(-c2ccc(C(=O)O)o2)o1` . Value?
Result: 1.13e-05

---

conditions: in acetic acid, 313.15 K
quantity kind: solubility (mole fraction)

Task: Endpoint output: solubility (mole fraction) of `O=C(O)c1ccc(-c2ccc(C(=O)O)o2)o1` . Value?
Result: 2.35e-05

---

settings: in isopropanol, 303.15 K
quantity kind: solubility (mole fraction)
// response body must contain only the number

Task: Endpoint output: solubility (mole fraction) of `O=C(O)c1ccc(-c2ccc(C(=O)O)o2)o1` . Value?
Result: 0.000106
